B1: TPR 5TU (parent)
chain: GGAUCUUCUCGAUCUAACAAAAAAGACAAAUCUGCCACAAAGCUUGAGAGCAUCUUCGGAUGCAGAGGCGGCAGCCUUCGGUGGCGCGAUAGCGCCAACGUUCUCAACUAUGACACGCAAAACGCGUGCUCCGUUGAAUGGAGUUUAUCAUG

Variants of: B1
Assay: polymerase ribozyme fitness, log enrichment relative to wild type (log ratio); higher = more active; in vitro selection for triplet polymerase activity
Fewer inactive variants are shown than the library holds.
Record yes (1) whenever polymerase ribozyme fitness (log ratio) is at -0.9 or higher; record no (0) when lower.

Has C10U C35A A40U U44A C51U G59U G68C C87A G143U a recorded polymerase ribozyme fitness (log ratio) greater than or equal to -0.9?
no (0)

Has A40C G141A a recorded polymerase ribozyme fitness (log ratio) greater than or equal to -0.9?
yes (1)
